Entries and their measured pest or weed control at 10 µg/mL follow.
- Tested on: armyworm
- Assay remarks: bioactivity test against armyworm, airbrush spray
- Assay type: in vivo
- Test conditions: 72 h, 10 mg/L; read-out: Insecticidal activity against armyworm (%)
Write the number in % without appending the unit.

{"columns": ["Molecule", "Experimental result"],
 "data": [
  ["Cc1ncnc(NCc2ccc(Oc3nc(Cl)c(Cl)cc3Cl)cc2)c1Cl [CK33, reference compound]", 0],
  ["CCc1ncnc(NCCc2ccc(Oc3ccc(C(F)(F)F)cn3)cc2)c1Cl", 28],
  ["Cc1ncnc(NC(C)c2ccc(Oc3ccc(C(F)(F)F)cc3)cc2)c1Cl (stereo not shown) [CK46, reference compound]", 0]
]}

Pending molecule:
Asked: // lookup pest or weed control at 10 µg/mL for CC(Cl)c1ncnc(NCCc2ccc(Oc3ccc(C(F)(F)F)cn3)cc2)c1Cl (stereo not shown) [CK24, reference compound]
Given back: 0

* * *

Entries and their measured control (test results against diamond back moth) follow.
- System: Diamond back moth
- Assay remarks: insecticidal activity against diamond back moth, airbrush spray
- Type: in vivo
- Test conditions: 100 ppm, mortality after 72 hrs
Write the number in % without appending the unit.

Some solved entries appear below for comparison.
{"columns": ["Chemical smiles", "Experimental result"],
 "data": [
  ["Cc1ncnc(NCCc2ccc(Oc3ccc(Cl)cc3)cc2)c1Cl", 100],
  ["CCc1ncnc(NCCc2ccc(Oc3ccc(C#N)cn3)cc2)c1Cl", 100]
]}

Asked: // lookup control (test results against diamond back moth) for FC(F)c1ncnc(NCCc2ccc(Oc3ccc(Cl)cc3)nc2)c1Cl
Given back: 100

* * *

- Test system: carmine spider mite
- Assay remarks: bioactivity test against carmine spider mite, airbrush spray
- Format: in vivo
- Test conditions: 5 mg/L
Criterion: Insecticidal activity against carmine spider mite (% ) strictly under 80%. Met: class 1. Not met: class 0.

{"columns": ["Compound", "Measured on", "Category label"],
 "data": [
  ["CC(Cl)c1ncnc(NCCc2ccc(Oc3ccc(C(F)(F)F)cn3)cc2)c1Cl (centres unmarked) [CK24, reference compound]", "carmine spider mite", "class 1"],
  ["Cc1ncnc(NCCc2ccc(Oc3ccc(C(F)(F)F)cn3)cc2)c1Cl [Compound I-22]", "carmine spider mite", "class 1"]
]}

Asked: Input CCc1ncnc(NCCc2ccc(Oc3ccc(C#N)cn3)cc2)c1Cl [Compound I-255] ; condition: Insecticidal activity against carmine spider mite (% ) strictly below 80%. Does it hold?
Given back: class 0

* * *

Entries and their measured Insecticidal activity against diamond back moth (%) follow.
- Tested on: Diamond back moth
- Assay remarks: insecticidal activity against diamond back moth, airbrush spray
- Format: in vivo
- Test conditions: 100 mg/L

{"columns": ["Compound", "Experimental result"],
 "data": [
  ["Cc1ncnc(NCCc2ccc(Oc3ccc(C(F)(F)F)cn3)cc2)c1Cl", "68%"]
]}

Asked: // lookup Insecticidal activity against diamond back moth (%) for CC(Cl)c1ncnc(NCCc2ccc(Oc3ncc(C(F)(F)F)cc3Cl)cc2)c1Cl (stereo not drawn) [CK44, reference compound]
Given back: 25%

Asked: // lookup Insecticidal activity against diamond back moth (%) for Cc1ncnc(NCCc2ccc(Oc3ccc(C#N)cc3F)cc2)c1Cl
Given back: 100%

Asked: // lookup Insecticidal activity against diamond back moth (%) for CCc1ncnc(NCCc2ccc(Oc3ccc(C#N)cc3F)cc2)c1Cl
Given back: 100%

Asked: // lookup Insecticidal activity against diamond back moth (%) for FC(F)c1ncnc(NCCc2ccc(Oc3ccc(Cl)cc3)nc2)c1Cl
Given back: 100%

* * *

- Tested on: carmine spider mite
- Assay remarks: bioactivity test against carmine spider mite, airbrush spray
- Format: in vivo
- Test conditions: Tetranychus cinnabarinus, 72 h, 100 mg/L; contrastive test; read-out: Insecticidal activity against carmine spider mite (% )
Entries and their measured pest or weed control at 100 µg/mL follow.
Write the number in % without appending the unit.

Some solved entries appear below for comparison.
{"columns": ["Compound", "Measured on", "pest or weed control at 100 µg/mL, %"],
 "data": [
  ["FC(F)(F)c1ccc(Oc2ccc(CCNc3ncnc(Cl)c3Cl)cc2)nc1 [CK73, reference compound]", "carmine spider mite", 85],
  ["Cc1ncnc(NCCc2ccc(Oc3ccc(C(F)(F)F)cn3)cc2)c1Cl [Compound I-6729]", "carmine spider mite", 100],
  ["CCc1ncnc(OC(CC)c2ccc(Oc3ccc(C(F)(F)F)cn3)cc2)c1Cl (stereo not drawn) [CK15, reference compound]", "carmine spider mite", 0],
  ["CCc1ncnc(NCCc2ccc(Oc3ccc(C(F)(F)F)cc3)cc2)c1Cl [II-347]", "carmine spider mite", 100],
  ["Cc1ncnc(NCCc2ccc(Oc3ccc(C(F)(F)F)cc3)cc2)c1Cl [II-69]", "carmine spider mite", 100],
  ["CCc1ncnc(OCCc2ccc(OCc3ccccc3)cc2)c1Cl [CK14, reference compound]", "carmine spider mite", 33]
]}

Pending compound:
Asked: Please state recorded pest or weed control at 100 µg/mL (tested on carmine spider mite) of Cc1ncnc(NCc2ccc(Oc3ncc(C(F)(F)F)cc3Cl)cc2)c1Cl [CK32, reference compound]
Given back: 22

* * *

- Test system: Green peach aphids (Myzus Persicae Sulzer)
- Assay remarks: bioactivity test against green peach aphid, airbrush foliar spray
- Assay type: in vivo
- Test conditions: 1.25 mg/L; contrastive test
Insecticidal activity against peach aphid (%) of 70% or higher: TRUE. Under 70%: FALSE.

Some entries whose results are on file:
{"columns": ["Molecule", "Measured on", "Category label"],
 "data": [
  ["CCc1ncnc(NCCc2ccc(Oc3ccc(C(F)(F)F)cn3)cc2)c1Cl [Compound I-6756]", "Green peach aphids (Myzus Persicae Sulzer)", "TRUE"],
  ["CCc1ncnc(NCCc2ccc(Oc3ccc(C#N)cc3F)cc2)c1Cl [II-482]", "Green peach aphids (Myzus Persicae Sulzer)", "TRUE"],
  ["CCc1ncnc(NCCc2ccc(Oc3ccc(C(F)(F)F)cn3)cc2)c1Cl [Compound I-6758]", "Green peach aphids (Myzus Persicae Sulzer)", "TRUE"],
  ["CC(F)c1ncnc(NCCc2ccc(Oc3ncc(C(F)(F)F)cc3Cl)cc2)c1Cl (centres unmarked) [CK2, reference compound]", "Green peach aphids (Myzus Persicae Sulzer)", "FALSE"],
  ["CCc1ncnc(NCCc2ccc(Oc3ccc(C(F)(F)F)cc3)cc2)c1Cl.Cl [II-19334]", "Green peach aphids (Myzus Persicae Sulzer)", "FALSE"]
]}

Asked: Given the entry Cc1ncnc(NCCc2ccc(Oc3ccc(C(F)(F)F)cn3)cc2)c1Cl [Compound I-6735] , answer whether its Insecticidal activity against peach aphid (%) meets or surpasses 70%.
Given back: FALSE

Asked: Given the entry CCc1ncnc(NCCc2ccc(Oc3ccc(C(F)(F)F)cn3)cc2)c1Cl [Compound I-6765] , answer whether its Insecticidal activity against peach aphid (%) meets or surpasses 70%.
Given back: TRUE

Asked: Given the entry CCc1ncnc(NCCc2ccc(Oc3ccc(C(F)(F)F)cn3)cc2)c1Cl [Compound I-254] , answer whether its Insecticidal activity against peach aphid (%) meets or surpasses 70%.
Given back: TRUE

* * *

- Tested on: corn rust
- Assay remarks: protectant activity in vivo against corn rust
- Test conditions: Zea mays, 168 h, read-out: control effect against corn rust (%), 1.6 mg/L; protectant activity
Endpoint: pest or weed control at 1.6 µg/mL (%)
Write the number in % without appending the unit.

Some solved entries appear below for comparison.
{"columns": ["Molecule", "Unit of measurement", "pest or weed control at 1.6 µg/mL"],
 "data": [
  ["Cc1ncnc(NC(C)c2ccc(Oc3ccc(C(F)(F)F)cn3)cc2)c1Cl (centres unmarked) [CK28, reference compound]", "%", 0],
  ["CCc1ncnc(NCCc2ccc(Oc3ccc(C(F)(F)F)cn3)cc2)c1Cl", "%", 95],
  ["FC(F)c1ncnc(NCCc2ccc(Oc3ccc(Cl)cc3)cc2)c1Cl", "%", 80]
]}

Asked: Please state recorded pest or weed control at 1.6 µg/mL (tested on corn rust) of CCc1ncnc(NCCc2ccc(Oc3cc(Cl)cc(Cl)c3)cc2)c1Cl
Given back: 80

Asked: Please state recorded pest or weed control at 1.6 µg/mL (tested on corn rust) of CCc1ncnc(NC(C)c2ccc(Oc3ncc(C(F)(F)F)cc3Cl)cc2)c1Cl (centres unmarked) [CK39, reference compound]
Given back: 10

* * *

- Test system: corn rust
- Assay remarks: protectant activity in vivo against corn rust
- Test conditions: Zea mays, 168 h, read-out: control effect against corn rust (%), 25 mg/L; protectant activity
pest or weed control at 25 µg/mL of 10% or higher: 1. Under 10%: -1.

{"columns": ["Compound", "Category label"],
 "data": [
  ["CCc1ncnc(NCCc2ccc(Oc3ccc(C(F)(F)F)cn3)cc2)c1Cl", 1],
  ["Cc1ncnc(NCCc2ccc(Oc3ccc(Cl)cc3)nc2)c1Cl", 1],
  ["FC(F)(F)c1cnc(Oc2ccc(CCNc3ncnc(Cl)c3Cl)cc2)c(Cl)c1 [CK72, reference compound]", 1],
  ["Cc1ncnc(NC(C)c2ccc(Oc3ccc(C(F)(F)F)cc3)cc2)c1Cl (centres unmarked) [CK46, reference compound]", -1],
  ["Cc1ncnc(NC(C)c2cccc3ccccc23)c1Cl (centres unmarked) [CK17, reference compound]", -1]
]}

Asked: Given the entry Clc1ccc(Oc2ccc(CCNc3ncnc4ccccc34)cn2)cc1 [CK18, reference compound] , answer whether its pest or weed control at 25 µg/mL meets or surpasses 10%.
Given back: -1

Asked: Given the entry CCc1ncnc(NC(C)c2ccc(Oc3ccc(C(F)(F)F)cn3)cc2)c1Cl (centres unmarked) [CK40, reference compound] , answer whether its pest or weed control at 25 µg/mL meets or surpasses 10%.
Given back: 1
